Biological target: Influenza virus A/Brisbane/59/2007 (H1N1) (Influenza A virus A/Brisbane/59/2007 (H1N1))
Experiment: cell-based or functional assay
Form field: HI activity (one value per entry).

- binder: "Group 35 representative clone F082-117, Fab-PP-type antibody (Fab, V domains shown) VH: QVQLVQSGSEVKKPGSSVKVSCKSSGGILRRSAISWVRQAPGQGLEWMGGILAIFGTTKYAQKFQGRITITADESTNTVHMELSSLRPDDTAVYYCAGGPHYYVSYFDSWGQGTLVTVSS VL: DIQMTQSPATLSLSPGERATLSCRASQSVRSYLAWYQQKPGQAPRLLIYDASNRATGIPARFSGSGSGTEFTLTISRLEPEDFAVYYCQQRSNWLFTFGPGTKVDFK"
  HI activity: "> 160 µg/mL"
- binder: "Group 56 representative clone F083-318, Fab-PP-type antibody (Fab, V domains shown) VH: EVQLVQSGAEVKKPGSSVKVSCQASGSIFSNYAINWVRQAPGQGLEWMGGIVPIFGTTRFAQKFQGRLTITADEPRSTAYMELNNLISEDTAVYYCARAPLIYNWYYDLWGRGTLVTVSS VL: EIVLTQSPSSLSASVGDRVTITCRASQGISNYLAWYQQKPGKVPKLLIYAASTLQSGVPSRFSGSGSGTDFTLTISSLQPEDVATYYCQKYNSAPHTFGPGTKVDIK"
  HI activity: "> 160 µg/mL"
